Experimental Details: JHH-DIPG-1 glioma cell viability, MIPE5.0 library, CellTiter-Glo luminescence, qHTS (AID 1347067);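 further: cells exposed to compound for 48 hours before readout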
Protocol Conditions: JHH-DIPG-1 glioma viability, CellTiter-Glo ATP luminescence
Inconclusive results are not listed. Active and inactive are the calls of the source. Cut-off not given; nearly all actives show AC50 up to about 26 µM.
Please state which outcome applies, choosing from active, inactive

# example entries with known answers
N#Cc1ccnc(N2C(=O)CC[C@H]2C(=O)N(c2cncc(F)c2)C(C(=O)NC2CC(F)(F)C2)c2ccccc2Cl)c1 (stereo not given in full); inactive
Cc1ccc(F)c(NC(=O)Nc2ccc(-c3cccc4[nH]nc(N)c34)cc2)c1; active

Tell me the assay call for COc1ccc(-c2ccc3c(N4CCOC[C@@H]4C)nc(N4CCOC[C@@H]4C)nc3n2)cc1CO please.
active

Let us now turn to C=C1C(=O)OC2/C=C(/C)CC/C=C(/C)CCC12 (stereo not given)
active

Let us now turn to COC(=O)Nc1cc(Nc2cc(NC3CC3)c3ncc(C#N)n3n2)c(Cl)c(N2CCN(C)CC2)c1
active

Let us now turn to Nc1nccc2c1ncn2[C@@H]1C=C(CO)[C@@H](O)[C@H]1O
inactive

Let us now turn to COc1cc(=C2C=c3ccccc3=N2)[nH]/c1=C/c1[nH]c(C)cc1C
active

Let us now turn to Cn1cncc1C(N)(c1ccc(Cl)cc1)c1ccc2c(c1)c(-c1cccc(Cl)c1)cc(=O)n2C (stereo not given)
active

Let us now turn to CCN(CC)CCNC(=O)c1ccc2nc(-c3ccccc3)c(-c3ccc(CN4CCC(n5c(=O)[nH]c6ccccc65)CC4)cc3)nc2c1
active

Let us now turn to CCc1cc(-c2n[nH]c(C)c2-c2ccc3c(c2)OCCO3)c(O)cc1O
active

====

Experimental Details: viability loss in pontine glioma line – cell-based, SU-DIPG-XVII, MIPE5.0, CellTiter-Glo, qHTS, dose response (AID 1347060);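 on AC50: cells exposed to compound for 48 hours before viability readout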
Protocol Conditions: CellTiter-Glo ATP luminescence
Results filed as inconclusive are left out. Activity calls are given as the source filed them. The limit is not given here; nearly all actives have AC50 up to about 26 µM.
Please state which outcome applies, choosing from active, inactive

# example entries with known answers
CCC(=O)N1CCN(c2ccc(-n3c(=O)ccc4cnc5ccc(-c6cnc7ccccc7c6)cc5c43)cc2C(F)(F)F)CC1; active
COC[C@@H](c1ccc(C(F)(F)F)cc1)N1CCN(C2(C)CCN(C(=O)c3c(C)ncnc3C)CC2)C[C@@H]1C; inactive
O=C1Cc2cc(C(=O)NC3C[C@H]4CC[C@@H](C3)N4S(=O)(=O)CC3CCN(CCCC(F)(F)F)CC3)c(Cl)cc2N1 (stereo partly drawn); inactive
CN1C(=O)N[C@@H](Cc2c[nH]c3c(Cl)cccc23)C1=O; inactive
CCN(CC)CCNC(=O)c1ccc2nc(-c3ccccc3)c(-c3ccc(CN4CCC(n5c(=O)[nH]c6ccccc65)CC4)cc3)nc2c1; active
Cc1n[nH]c(C)c1Cc1sc2c(c1C(=O)N1C[C@H](O)CO1)c(=O)n(C)c(=O)n2CC(C)C; inactive

Tell me the assay call for COc1ccc(-c2oc3c(CC=C(C)C)c(OC4O[C@H](CO)[C@@H](O)[C@H](O)[C@H]4O)cc(O)c3c(=O)c2OC2O[C@@H](C)[C@H](O)[C@@H](O)[C@H]2O)cc1 (stereo partly drawn) please.
inactive

Let us now turn to CN(c1ncccc1CNc1nc(Nc2ccc3c(c2)CC(=O)N3)ncc1C(F)(F)F)S(C)(=O)=O
active

Let us now turn to OC[C@H]1O[C@@H](S[C@@H]2O[C@H](CO)[C@H](O)[C@H](n3cc(-c4cccc(F)c4)nn3)[C@H]2O)[C@H](O)[C@@H](n2cc(-c3cccc(F)c3)nn2)[C@H]1O
inactive

Let us now turn to O=C(CCCCCCC(=O)Nc1ccc([C@H]2O[C@@H](CSc3nc(-c4ccccc4)c(-c4ccccc4)o3)C[C@@H](c3ccc(CO)cc3)O2)cc1)NO
inactive

Let us now turn to CC1(C)CN(C(=O)c2ccc(-c3cccc4nc(NC(=O)C5CC5)nn34)cc2)C1
inactive

Let us now turn to NC(=O)[C@@H](CCC(F)(F)F)N(Cc1ccc(-c2ncon2)cc1F)S(=O)(=O)c1ccc(Cl)cc1
inactive

Let us now turn to O=C(NCC(=O)N1CCCC1)Nc1ccc2cnccc2c1
inactive

Let us now turn to C[C@@]12O[C@@H](C[C@]1(O)CO)n1c3ccccc3c3c4c(c5c6ccccc6n2c5c31)CNC4=O
active

Let us now turn to OC[C@H]1O[C@@H](n2cnc3c2NC=NC[C@H]3O)C[C@@H]1O
inactive

Let us now turn to CC(C)C[C@@H](N)[C@H](O)C(=O)N[C@H](C(=O)N[C@H](C(=O)N[C@@H](CC(=O)O)C(=O)O)C(C)C)C(C)C
inactive

Let us now turn to Cc1ccc(S(=O)(=O)Nc2cc(Cl)ccc2C(=O)Nc2nc(-c3ccccc3)cs2)cc1
active

Let us now turn to CCOc1cc2c(c(F)c1OCC)C(=N)N(CC(=O)c1cc(N3CCOCC3)c(OC)c(C(C)(C)C)c1)C2
active

Let us now turn to CCN(C(=O)c1c(O)c2c(Cl)cccc2n(C)c1=O)c1ccccc1
active

Let us now turn to c1cc(OCCN2CCCCC2)cc(-c2n[nH]c3ccc(-c4ncn[nH]4)cc23)c1
inactive

Let us now turn to CS(=O)(=O)c1ccc(C(=O)Nc2ccc(Cl)c(-c3ccccn3)c2)c(Cl)c1
inactive

Let us now turn to COc1ccc(-c2ccc3c(N4CCOCC4)nc(N4C[C@@H](C)O[C@@H](C)C4)nc3n2)cc1CO
active

The measurements presented in this section are drawn from PubChem BioAssay.
